Molecular target: T1, 4H3697-AA
T1 chain: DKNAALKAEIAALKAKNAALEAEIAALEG
Test: two-hybrid library CCmax;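 note: natural log of median RNA to DNA barcode read ratio; higher means stronger binding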
Conditions: mean of both orientations
Assay readout: interaction score

>  <Binder>
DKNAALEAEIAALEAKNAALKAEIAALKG [4H3130-AA]

>  <Assay readout>
interaction score

>  <Result>
-0.0288

$$$$
>  <Binder>
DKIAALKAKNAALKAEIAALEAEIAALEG [4H3009-AA]

>  <Assay readout>
interaction score

>  <Result>
0.129

$$$$
>  <Binder>
DKNAALEAKIAALKAENAALEAKIAALEG [4H3413-AA]

>  <Assay readout>
interaction score

>  <Result>
-0.722

$$$$

Inquiry: Any idea what interaction score was measured for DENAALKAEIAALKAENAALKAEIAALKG [4H1626-AA] ?
Reply text: -1.21
